System: PC-3 prostate
Assay: NCI-60 one-dose screen, 48 h (100 = growth as untreated, 0 = no growth, -100 = all killed)
Settings: 10 µM unless noted
The panel holds about 83,000 compounds, 20% with a hit somewhere; the sample as a whole holds those more often.
measurement.type: growth (%)
Value expressed in %; do not type the unit.

Examples with answers:
>>> numeric_result("CCC1=C(c2ccc(OC)cc2)C(C)Oc2cc(OC(C)=O)ccc21 (configuration not stated)")
68.3
>>> numeric_result("O=[N+]([O-])c1ccc(Oc2cccc(C(F)(F)F)c2)c([N+](=O)[O-])c1")
88.9
>>> numeric_result("NNC(=O)NO")
101

INPUT: What value of growth has been recorded for this entry: COc1cc(C2CC(c3ccc(C)cc3)=NN2C(C)=O)ccc1Oc1ccnc2cc(Cl)ccc12 (configuration not stated)
OUTPUT: 67.9

INPUT: What value of growth has been recorded for this entry: O=C1/C(=C/c2ccc([N+](=O)[O-])o2)Oc2ccc(Cl)cc21
OUTPUT: -5.46

INPUT: What value of growth has been recorded for this entry: CN(CC(=O)N(Cc1ccc(C2CCCCC2)cc1)c1ccc(C(=O)O)cc1)S(=O)(=O)c1c(F)c(F)c(F)c(F)c1F
OUTPUT: 10.4

INPUT: What value of growth has been recorded for this entry: CCC(C)CC(C)C(=O)c1c(O)ccn(O)c1=O (configuration not stated)
OUTPUT: 24.5

INPUT: What value of growth has been recorded for this entry: Fc1ccc(-c2nc(Nc3ccc(-c4nc5ccccc5[nH]4)cc3)nc(N3CCOCC3)n2)cc1
OUTPUT: -93.5

INPUT: What value of growth has been recorded for this entry: CC(=O)c1ccc2c3c(n(C)c2c1)CCCC3
OUTPUT: 100

INPUT: What value of growth has been recorded for this entry: CN1CCCC1c1cccnc1 (configuration not stated)
OUTPUT: 48.7

INPUT: What value of growth has been recorded for this entry: Oc1ccccc1/C=N\Nc1ccccc1
OUTPUT: 36.3

INPUT: What value of growth has been recorded for this entry: C=C(C[C@@](O)(C(=O)Oc1ccccc1)C(=O)C1CCCCC1)c1ccccc1
OUTPUT: 84.2

INPUT: What value of growth has been recorded for this entry: NC(N)=NN=c1c(=O)c2ccccc2c1=O
OUTPUT: 78

INPUT: What value of growth has been recorded for this entry: CCC1=C(c2ccc(OC)cc2)C(C)(C)Oc2c1ccc(O)c2CN1CCCC1
OUTPUT: 47.1

INPUT: What value of growth has been recorded for this entry: C[N+]1(CCc2ccccc2)CCC(CCC2CC[N+](C)(CCc3ccccc3)CC2)CC1 (configuration not stated)
OUTPUT: 101

INPUT: What value of growth has been recorded for this entry: COC(=O)[C@]1(CCSC)N[C@H](c2cn(-c3ccccc3)nc2C)[C@@H]2C(=O)N(c3ccccc3)C(=O)[C@@H]21
OUTPUT: 101

INPUT: What value of growth has been recorded for this entry: Cc1ccc(C(=O)Nc2ccc(Cl)cc2C(=O)NCc2ccccc2)cc1
OUTPUT: 76.6

INPUT: What value of growth has been recorded for this entry: c1cncc(CNc2ccccc2-c2nnc(Nc3ccc4c(c3)OCO4)o2)c1
OUTPUT: 27.9

INPUT: What value of growth has been recorded for this entry: O=C(O)c1ccc(NC(=O)c2ccc(Nc3ccnc(C(F)(F)F)c3)cc2)cc1
OUTPUT: 99.4
